- experimentalTarget: acetylcholinesterase (AChE) (Homo sapiens, UniProt P22303)
- Sequence (P22303 32-614): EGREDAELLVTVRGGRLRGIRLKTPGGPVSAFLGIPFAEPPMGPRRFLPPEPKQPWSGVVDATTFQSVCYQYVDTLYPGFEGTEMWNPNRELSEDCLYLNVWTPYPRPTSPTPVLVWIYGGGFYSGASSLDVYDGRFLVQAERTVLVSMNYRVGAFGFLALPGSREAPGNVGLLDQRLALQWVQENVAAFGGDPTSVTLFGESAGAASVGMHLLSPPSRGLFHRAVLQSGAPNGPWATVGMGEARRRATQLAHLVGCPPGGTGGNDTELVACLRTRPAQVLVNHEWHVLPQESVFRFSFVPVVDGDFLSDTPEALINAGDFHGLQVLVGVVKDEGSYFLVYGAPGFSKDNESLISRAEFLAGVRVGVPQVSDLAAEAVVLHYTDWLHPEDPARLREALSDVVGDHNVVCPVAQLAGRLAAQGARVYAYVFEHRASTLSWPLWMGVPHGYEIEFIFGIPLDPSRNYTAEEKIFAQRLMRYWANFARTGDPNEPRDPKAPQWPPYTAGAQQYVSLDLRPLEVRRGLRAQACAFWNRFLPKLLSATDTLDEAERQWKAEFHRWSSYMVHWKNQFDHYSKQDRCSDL
- assayText: biochemical
- testSettings: read-out: % inhibition AChE
# if value of inhibition at 100 µM reaches 90%, tag TRUE; if it stays below, tag FALSE

compound: CC(=O)OC[C@H]1O[C@@H](n2cc(CSc3ccc(-c4ccccn4)nn3)nn2)[C@H](OC(C)=O)[C@@H](OC(C)=O)[C@H]1OC(C)=O
discreteLabel: FALSE
//
compound: OC[C@H]1O[C@@H](n2cc(CSc3ccc(-c4ccccn4)nn3)nn2)[C@H](O)[C@@H]1O
discreteLabel: TRUE
//
compound: CC(=O)OC1COC(n2cc(CSc3ccc(-c4ccccn4)nn3)nn2)C(OC(C)=O)C1OC(C)=O (stereo not shown)
discreteLabel: TRUE

====

- experimentalTarget: butyrylcholinesterase (BuChE) (Homo sapiens)
- Sequence (P06276 29-602): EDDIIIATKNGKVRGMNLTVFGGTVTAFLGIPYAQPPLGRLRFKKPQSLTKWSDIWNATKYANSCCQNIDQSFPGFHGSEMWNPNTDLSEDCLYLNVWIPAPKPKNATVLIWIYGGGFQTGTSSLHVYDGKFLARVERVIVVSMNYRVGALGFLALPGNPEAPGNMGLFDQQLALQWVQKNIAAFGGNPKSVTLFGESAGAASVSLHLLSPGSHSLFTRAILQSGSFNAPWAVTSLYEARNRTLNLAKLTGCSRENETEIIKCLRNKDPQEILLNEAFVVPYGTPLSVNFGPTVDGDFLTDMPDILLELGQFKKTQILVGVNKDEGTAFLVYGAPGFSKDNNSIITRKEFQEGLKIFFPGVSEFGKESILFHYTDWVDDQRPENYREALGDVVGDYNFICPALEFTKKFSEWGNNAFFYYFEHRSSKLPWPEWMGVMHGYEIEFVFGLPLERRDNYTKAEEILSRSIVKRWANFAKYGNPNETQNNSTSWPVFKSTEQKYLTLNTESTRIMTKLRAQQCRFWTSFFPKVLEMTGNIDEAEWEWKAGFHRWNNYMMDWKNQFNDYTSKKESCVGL
- assayText: biochemical
- testSettings: IC50 against butyrylcholinesterase (BuChE), human enzyme; dose response 0.01 to 100 µM
pIC50: −log10 of the molar value.
# if value of pIC50 reaches 5, tag Fulfilled; if it stays below, tag Not fulfilled

molecule: C#CCSc1ccc(-c2ccccn2)nn1 [Compound 1]
discreteLabel: Fulfilled
//
molecule: OCCn1cc(CSc2ccc(-c3ccccn3)nn2)nn1 [Compound 10]
discreteLabel: Fulfilled
//
molecule: CC(=O)OC[C@H]1O[C@@H](n2cc(CSc3ccc(-c4ccccn4)nn3)nn2)[C@H](OC(C)=O)[C@@H]1OC(C)=O [Compound 6]
discreteLabel: Not fulfilled
//
molecule: CC(=O)OC[C@H]1O[C@@H](n2cc(CSc3ccc(-c4ccccn4)nn3)nn2)[C@H](OC(C)=O)[C@@H](OC(C)=O)[C@H]1OC(C)=O [Compound 4]
discreteLabel: Not fulfilled
//
molecule: OC[C@H]1O[C@@H](n2cc(CSc3ccc(-c4ccccn4)nn3)nn2)[C@H](O)[C@@H]1O [Compound 8]
discreteLabel: Fulfilled
//
molecule: NCCn1cc(CSc2ccc(-c3ccccn3)nn2)nn1 [Compound 11]
discreteLabel: Not fulfilled

====

Here, each record is paired with measured Selectivity Index (AChE/BuChE) data.
- experimentalTarget: acetylcholinesterase (AChE) (Homo sapiens, UniProt P22303)
- testSettings: ratio between (AChE/BuChE) IC50

compound: OCCOCCn1cc(CSc2ccc(-c3ccccn3)nn2)nn1
experimentalTarget: acetylcholinesterase (AChE) (Homo sapiens, UniProt P22303)
Selectivity Index (AChE/BuChE): 1.68
--
compound: C#CCSc1ccc(-c2ccccn2)nn1
experimentalTarget: acetylcholinesterase (AChE) (Homo sapiens, UniProt P22303)
Selectivity Index (AChE/BuChE): 2.64
--
compound: OC[C@H]1O[C@@H](n2cc(CSc3ccc(-c4ccccn4)nn3)nn2)[C@H](O)[C@@H](O)[C@@H]1O
experimentalTarget: acetylcholinesterase (AChE) (Homo sapiens, UniProt P22303)
Selectivity Index (AChE/BuChE): 0.39
--
compound: OC[C@H]1O[C@@H](n2cc(CSc3ccc(-c4ccccn4)nn3)nn2)[C@H](O)[C@@H]1O
experimentalTarget: acetylcholinesterase (AChE) (Homo sapiens, UniProt P22303)
Selectivity Index (AChE/BuChE): 0.12
--
compound: CC(=O)OC1COC(n2cc(CSc3ccc(-c4ccccn4)nn3)nn2)C(OC(C)=O)C1OC(C)=O (stereo not shown)
experimentalTarget: acetylcholinesterase (AChE) (Homo sapiens, UniProt P22303)
Selectivity Index (AChE/BuChE): 1.41
--
compound: CC(=O)OC[C@H]1O[C@@H](n2cc(CSc3ccc(-c4ccccn4)nn3)nn2)[C@H](OC(C)=O)[C@@H](OC(C)=O)[C@H]1OC(C)=O
experimentalTarget: acetylcholinesterase (AChE) (Homo sapiens, UniProt P22303)
Selectivity Index (AChE/BuChE): 0.81
--
compound: CC(=O)OC[C@H]1O[C@@H](n2cc(CSc3ccc(-c4ccccn4)nn3)nn2)[C@H](OC(C)=O)[C@@H]1OC(C)=O
experimentalTarget: acetylcholinesterase (AChE) (Homo sapiens, UniProt P22303)
Selectivity Index (AChE/BuChE): 0.29
--
compound: NCCn1cc(CSc2ccc(-c3ccccn3)nn2)nn1
experimentalTarget: acetylcholinesterase (AChE) (Homo sapiens, UniProt P22303)
Selectivity Index (AChE/BuChE): 0.34
--
compound: CC(=O)OCC1OC(n2cc(CSc3ccc(-c4ccccn4)nn3)nn2)C(OC(C)=O)C(OC(C)=O)C1OC(C)=O (stereo not shown)
experimentalTarget: acetylcholinesterase (AChE) (Homo sapiens, UniProt P22303)
Selectivity Index (AChE/BuChE): 29.32
--
compound: OCCn1cc(CSc2ccc(-c3ccccn3)nn2)nn1
experimentalTarget: acetylcholinesterase (AChE) (Homo sapiens, UniProt P22303);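 also: Kit-based enzyme assay using enzymes of human origin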
Selectivity Index (AChE/BuChE): 0.30
